# Tested on: Fibroblast
# assay-method-text: Multiplex assay against human fibroblast
# Type: toxicity, cell-based
# measurement-context: 48 h, 1 µM, compound concentration 1 uM, replicate 1
readout-label: Total Cell Count

# molecule Cl.NC[C@@H]1O[C@H](C23CC4CC(CC(C4)C2)C3)Cc2c1ccc(O)c2O ; its Total Cell Count = 212

Briefly, Total Cell Count measured for CC(C)[C@H](CO)Nc1nc(Nc2cccc(Cl)c2)c2ncn(C(C)C)c2n1 [PURVALANOLA] : 203

molecule CC(Cc1ccc(O)c(O)c1)C(C)Cc1ccc(O)c(O)c1 (centres undefined) [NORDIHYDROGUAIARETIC ACID] , Total Cell Count observed: 162

Short answer for CC(C)c1cc(Nc2nc(N3CCC[C@H](N)C3)ncc2C(N)=O)cc(C(C)C)n1 : Total Cell Count was 162

The reported Total Cell Count of the molecule CN1C(=O)[C@@H](NC(=O)c2cc3ccccc3[nH]2)N=C(c2ccccc2)c2ccccc21 [DEVAZEPIDE] was 92

Entry under test: Cc1c(P(=S)(c2ccccc2)c2ccccc2)n2ccccc2[n+]1C/C=C/c1ccccc1.[Br-] . Its Total Cell Count was 191

// Total Cell Count lookup, molecule = C=CC(=O)Nc1cc(-n2c(=O)ccc3cnc4ccc(-c5ccc(NS(C)(=O)=O)cc5)cc4c32)ccc1C , result: 79

The recorded Total Cell Count for N#Cc1cccc(C(=O)Nc2cc(-c3ccccc3)nn2-c2ccccc2)c1 is 166

Entry under test: CCCCCNC(=N)N/N=C/c1c[nH]c2ccc(OC)cc12.O=C(O)/C=C\C(=O)O [TEGASEROD MALEATE] . Its Total Cell Count was 115

###

# Test system: Fibroblast
# assay-method-text: Multiplex assay against human fibroblast
# Type: toxicity, cell-based
# measurement-context: 48 h, 10 µM, compound concentration 10 uM, replicate 1
Population Apoptotic (%) under 80% gets T, anything at or over 80% gets F.

## Task Does the reported Population Apoptotic (%) of CC(C)C[C@H](NC(=O)[C@H](Cc1ccccc1)NC(=O)CNC(=O)CNC(=O)[C@@H](N)Cc1ccc(O)cc1)C(=O)O stay below 80%?
## Result T

## Task In plain terms, does C[C@@H](Oc1cc(-n2cnc3ccc(CN4CCN(C)CC4)cc32)sc1C(N)=O)c1ccccc1C(F)(F)F come in under 80% for Population Apoptotic (%)?
## Result F

## Task Bench note: check whether N#CCNC(=O)c1ccc(-c2ccnc(Nc3ccc(N4CCOCC4)cc3)n2)cc1 shows Population Apoptotic (%) below 80%
## Result T

## Task Problem: For the molecule Cc1c(P(=S)(c2ccccc2)c2ccccc2)n2ccccc2[n+]1C/C=C/c1ccccc1.[Br-] , is Population Apoptotic (%) under 80%?
## Result F

## Task For this molecule, is Population Apoptotic (%) lower than 80%? CCCCCNC(=N)N/N=C/c1c[nH]c2ccc(OC)cc12.O=C(O)/C=C\C(=O)O [TEGASEROD MALEATE]
## Result T

## Task Take the molecule CC(C)c1cc(Nc2nc(N3CCC[C@H](N)C3)ncc2C(N)=O)cc(C(C)C)n1 and say whether its Population Apoptotic (%) is less than 80%.
## Result F

## Task Say whether its Population Apoptotic (%) is strictly beneath 80%. Entry: CN(c1cc(C(F)(F)F)nc(OCCC(=O)O)n1)c1cccc2c1CCC2
## Result T

meta.source: ChEMBL document CHEMBL4689842
